Ref: PubChem BioAssay

// reported z-score for each item listed
experiment_summary: basal S. cerevisiae growth modulation, no modifier, primary screen, OD600, strain BY4716, 24 h, basal condition (AID 1173)
experimental_setup: OD600, 24 h, higher = more signal, called active from +8 up or from −8 down
The source made the active and inactive calls.

[[record]]
molecule = "C=CC[C@@]1(C(=O)N2CCOCC2)N=C(c2ccc(OCCCO)cc2)O[C@@H]1c1ccccc1N=[N+]=[N-]"
metric = "z-score"
result = "-1.24 (inactive)"

[[record]]
molecule = "COC(=O)[C@@]1(Cc2ccccc2)[C@H]2c3cc(C(=O)N(C)C)n(Cc4cc(C)n(C)n4)c3C[C@H]2CN1C(=O)c1ccccc1"
metric = "z-score"
result = "0.289 (inactive)"


Kindly note the recorded z-score for COc1ccc(NN2C(C(O)c3ccc(OC)c(OCc4ccccc4)c3)C=CC3C(=O)N(C4CCCCC4)C(=O)C32)cc1 (configuration not stated) , which is -1.76 (inactive)
